Assay: NCI Yeast Anticancer Drug Screen. Data for the mlh1 rad18 strain (AID 175)
Conditions: S. cerevisiae mlh1 rad18 strain growth inhibition; at 5.0 µM (retest, dose inferred, filed as 0.5); stronger effect = higher value
The panel holds about 79,000 compounds, 15% with a hit somewhere; the sample as a whole holds those more often.
measured-metric: growth inhibition (%)
Numbers only, in %.

compound: NC(=S)Nc1ccc2c(c1)Cc1ccccc1-2
measured-metric: growth inhibition
test-result: 7
--
compound: CN(C)CCN(C)CC(C)(C)C(=O)/C=C/c1ccc(Cl)c(Cl)c1
measured-metric: growth inhibition
test-result: 8
--
compound: Cc1ccc2c(c1)sc(-c1ccc(N(C)C)cc1)[n+]2C
measured-metric: growth inhibition
test-result: 24
--
compound: CCCCCCCCCCCC[n+]1ccccc1 (tested in a mixture with another compound)
measured-metric: growth inhibition
test-result: 21
--
compound: CC1OC(OC2C(OC3CCC4(C)C(CCC5(C)C4CC=C4C6CC(C)(C)CCC6(C(=O)O)CCC45C)C3(C)CO)OCC(O)C2O)C(O)C(O)C1O (centres undefined)
measured-metric: growth inhibition
test-result: 93
--
compound: CCNc1nnnn1CC
measured-metric: growth inhibition
test-result: 6

State recorded growth inhibition for all listed compounds.
1. CC(=O)c1ccc2c(c1)CCc1ccccc1-2
2. O=[N+]([O-])c1ccc2c(c1)Cc1ccccc1-2
3. O=[N+]([O-])c1ccc(C(Br)c2ccc([N+](=O)[O-])cc2)cc1
4. Oc1ccc(Cl)cc1Cc1cc(Cl)ccc1O

**A:**
1: 1; 2: 20; 3: 54; 4: -5
